procedure_summary: NPC library primary testing for decreased DLD-1 cell viability via CellTiter-Glo (AID 1117346)
cond: DLD-1 viability, CellTiter-Glo luminescence; at 20 µM (top of the series)
measured_quantity: viability decrease (inhibition) (%)
// note: answer is a bare numeric in %

Recorded viability decrease (inhibition) for NC(=O)N/N=C/c1ccc([N+](=O)[O-])o1 , please?
-6.7

# lookup: viability decrease (inhibition) of CN1CCC(=C2c3ccccc3C=Cc3ccccc32)CC1
31.8

Request the reported viability decrease (inhibition) associated with Cc1ccc2c(Cl)cc(Cl)c(O)c2n1
3.5

Suppose we examine the molecule OCc1cc(C(O)CNCCCCCCOCCCCc2ccccc2)ccc1O (stereo not drawn) ; what viability decrease (inhibition) value has been reported?
37.8

Which value of viability decrease (inhibition) has been reported for CC1=C(C)C(=O)C(C(CCCCCC(=O)O)c2ccccc2)=C(C)C1=O (stereo not drawn) in the records?
-13.3

I am curious: what viability decrease (inhibition) value has been reported for CCCc1c(OCCCCc2nn[nH]n2)ccc(C(C)=O)c1O ?
27.7

For the molecule shown here, CCN(CC)CCOCCOC(=O)C1(c2ccccc2)CCCC1 , give the reported viability decrease (inhibition).
62.5

What value of viability decrease (inhibition) has been recorded for this entry: Nc1ccc(O)c(C(=O)O)c1
20.4

So what's the measured viability decrease (inhibition) for this one? CN(C)CCC(c1ccccc1)c1ccccn1 (stereo not drawn)
-7.2

Which viability decrease (inhibition) is listed for Fc1ccc(C(c2ccc(F)cc2)N2CCN(C/C=C/c3ccccc3)CC2)cc1 ?
99.7

If you can, please state the reported viability decrease (inhibition) value of Cc1cc(C(C)(C)C)c(O)c(C(C)(C)C)c1 .
-5.5

Given the molecule Nc1cc(-c2ccncc2)c[nH]c1=O , what is its reported viability decrease (inhibition)?
-7.5

Using the record for Cc1ncc([N+](=O)[O-])n1CC(O)CCl (stereo not drawn) , report its viability decrease (inhibition).
-4.95

---

procedure_summary: drug combination toxicity in non-malignant astrocytes – cell-based, BGB or cisplatin IC20 combos, cytotoxicity control for chromothriptic childhood tumor combination screen (AID 1671460);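 note: cells exposed to compounds for 96 hours before viability readout; 0% = vehicle and 100% = killing control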
cond: Human astrocytes, viability inhibition, drug combinations; at 0.5 µM; stronger effect = higher value
For each entry below, report its inhibition value.
Dear colleague, please return just the value in %, with no unit written.

State the recorded inhibition for this entry: Nc1nc(=S)c2[nH]cnc2[nH]1
4.77

Request the reported inhibition associated with C[C@H]1COc2c(C3(N)CC3)c(F)cc3c(=O)c(C(=O)O)cn1c23
5.46

inhibition for CCn1cc(C(=O)O)c(=O)c2cc3c(cc21)OCO3 ?
-0.34

What value of inhibition has been reported for the following compound? Nc1nc2c(ncn2COC(CO)CO)c(=O)[nH]1
19.3

Find the recorded inhibition belonging to Cc1oncc1C(=O)Nc1ccc(C(F)(F)F)cc1 and report it.
23.1

// returns reported inhibition for input O=C(O)CCCCCCCC(=O)O
-11.4

---

procedure_summary: HCT116 colon cancer cell growth inhibition, primary screen, CellTiter-Glo luminescence, NPC library (AID 1117342)
cond: at 20 µM (top of the series)
Activity calls are given as the source filed them.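 How the source made its calls: active means compounds that lower survival of HCT116 colon cancer cells in the luminescence readout, no numeric limit stated; inactive means the rest.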
Would you mind answering with one of these outcomes? active, inactive

# lookup: test call for CC(=O)Oc1c(C)c(C)c2c(c1C)CC[C@@](C)(CCC[C@H](C)CCC[C@H](C)CCCC(C)C)O2
inactive

Call for entry CCCCNc1ccc(C(=O)OCCN(C)C)cc1 :
inactive

How did this test come out for Cc1ncc([N+](=O)[O-])n1CCO ?
inactive

I would be grateful if you could indicate the recorded call for CN(C)CCOC(=O)COc1ccc(Cl)cc1 .
inactive

Record request — test call for CN(C)CCCN1c2ccccc2Sc2ccc(C(F)(F)F)cc21
active

Identify the outcome logged in this assay for the molecule shown: O=C(O)CCNC(=O)c1ccccc1
inactive

What call does the record list for O=C(Nc1ccc([N+](=O)[O-])cc1Cl)c1cc(Cl)ccc1O ?
active

Per the records of this test, what outcome belongs to CN1CCN2c3ccccc3Cc3ccccc3C2C1 (stereo unspecified) ?
inactive

GET /call?item= Cc1onc(-c2ccccc2)c1C(=O)N[C@@H]1C(=O)N2[C@@H]1SC(C)(C)[C@@H]2C(=O)O returns the recorded outcome of this test.
inactive

Identify the outcome logged in this assay for the molecule shown: Cc1cc(CC(=O)O)n(C)c1C(=O)c1ccc(Cl)cc1
inactive

Assay result, entry Cc1nc2sccn2c(=O)c1CCN1CCC(=C(c2ccc(F)cc2)c2ccc(F)cc2)CC1 — outcome?
active
